ASSAY PROCEDURE: qHTS for Inhibitors of human tyrosyl-DNA phosphodiesterase 1 (TDP1): qHTS in cells in absence of CPT; also: nearly all actives have a fitted effect of over 55% in size
PARTICULARS: DT40 Tdp1-/- hTDP1 cells, no CPT, ATP luminescence, 48 h
About 64,000 (15%) of roughly 420,000 compounds were called active. About 27% were inconclusive and are not listed. Calls follow the shape of the dose curve; as a rule, active = well fitted inhibition curve with a large enough effect; inconclusive = small, poorly fitted or top-dose-only effect; inactive = flat fitted curve, though single readings scatter. Not all results are given here.
Allowed answers: Y (active), N (inactive)

Illustrative cases are given below, each with its answer.
MOLECULE	CLASSIFICATION
CCOc1ccc(-c2n[nH]c(=S)n2/N=C/c2cc3c(cc2[N+](=O)[O-])OCO3)cc1	N
Cc1nc(NC(=O)C23CCC(C)(C(=O)O2)C3(C)C)sc1C (stereo unspecified)	N
COc1ccc(CCN=C2SCC(=O)N2C)cc1OC	N
Cc1cccc(N2CCN(c3ccc(C(N)=O)cc3[N+](=O)[O-])CC2)c1C	N
COCCCNC(=O)C1CCN(c2ccc(N3CCOCC3)nn2)CC1	N

*Q* Record lookup: outcome of this test for CCOc1ccc(C(=O)NCC(=O)N2CCCCCCC2)cc1OCC ?
*A* N

*Q* Record lookup: outcome of this test for O=C(Nc1ccc(OCC(=O)N2CCOCC2)cc1)c1cc(F)c(F)cc1Cl ?
*A* N

*Q* Record lookup: outcome of this test for COc1ccc(CCNC(=O)COC(=O)c2ccc[nH]c2=O)cc1 ?
*A* N

*Q* Record lookup: outcome of this test for COc1ccc(NS(=O)(=O)c2ccc(N3CCN(CCO)CC3)c([N+](=O)[O-])c2)cc1 ?
*A* Y

*Q* Record lookup: outcome of this test for CNC(=S)N1N=C(c2ccccc2)CC1c1ccc(Br)cc1 (stereo unspecified) ?
*A* N

*Q* Record lookup: outcome of this test for CCc1ccc(CNC(=O)c2cc3c(=O)n(CC)c4ccccc4c3s2)cc1 ?
*A* Y

====

ASSAY PROCEDURE: qHTS for Inhibitors of human tyrosyl-DNA phosphodiesterase 1 (TDP1): qHTS in cells in absence of CPT; also: nearly all actives have a fitted effect of over 55% in size
PARTICULARS: DT40 Tdp1-/- hTDP1 cells, no CPT, ATP luminescence, 48 h
Hit rate of the full screen: of about 420,000 compounds, about 64,000 (15%) were called active. Inconclusive results (about 27%) are left out. The call rests on the fitted dose curve; in most records, active means well fitted inhibition curve with a large enough effect; inconclusive means small, poorly fitted or top-dose-only effect; inactive means flat fitted curve, though single readings scatter. Not all results are given here.
Allowed answers: active, inactive

COMPOUND	CLASSIFICATION
CCCn1nnnc1NCc1ccc(OC)cc1	inactive

*Q* Record lookup: outcome of this test for CC(NC(=O)COC(=O)c1cc(=O)[nH]c2ccccc12)c1ccccc1 (stereo not drawn) ?
*A* inactive

====

ASSAY PROCEDURE: qHTS for Inhibitors of human tyrosyl-DNA phosphodiesterase 1 (TDP1): qHTS in cells in absence of CPT; also: nearly all actives have a fitted effect of over 55% in size
PARTICULARS: DT40 Tdp1-/- hTDP1 cells, no CPT, ATP luminescence, 48 h
The campaign covered roughly 420,000 compounds. About 64,000 (15%) were called active. About 27% were inconclusive and are not listed. Calls come from the whole dose curve; as a rule, active = well fitted inhibition curve with a large enough effect; inconclusive = small, poorly fitted or top-dose-only effect; inactive = flat fitted curve, though single readings scatter. Not all results are given here.
Allowed answers: 1 = active, -1 = inactive

COMPOUND	CLASSIFICATION
Cc1ccc(Cl)cc1NC(=O)C(C)n1nnc2sc(-c3ccccc3)cc2c1=O (stereo unspecified)	-1
O=C(CCCn1c(=O)[nH]c2cc(Cl)ccc2c1=O)NCCN1CCN(c2ccccc2)CC1	1
COc1ccccc1C(=O)NC(CCSC)C(=O)NNC(=O)c1ccccc1C (stereo unspecified)	-1
CC(C)Cn1c(=O)c2ccccc2n2c(CCC(=O)N3CCN(c4cccc(Cl)c4)CC3)nnc12	1
O=C(c1[nH]ncc1-c1ccc(Cl)cc1)C1CO1 (stereo unspecified)	1

*Q* Record lookup: outcome of this test for Cn1c(CNC(=O)c2ccco2)nnc1SCC(=O)N1CCN(c2ccccc2)CC1 ?
*A* -1

*Q* Record lookup: outcome of this test for Cc1ccc(C)c(N2CCN(C(=O)CCCCCn3c(=S)[nH]c4ccc(N5CCOCC5)cc4c3=O)CC2)c1 ?
*A* 1

*Q* Record lookup: outcome of this test for O=C(c1nnc(-c2ccc(Cl)cc2)o1)C1CCCC1 ?
*A* -1

*Q* Record lookup: outcome of this test for CCN(CC)CCNC(=O)CCCCCn1c(=O)[nH]c2cc(C(=O)OC)ccc2c1=O ?
*A* -1

*Q* Record lookup: outcome of this test for CC(C)Cn1c(=O)c2ccccc2n2c(-c3cccc(Cl)c3)nnc12 ?
*A* 1

*Q* Record lookup: outcome of this test for COc1ccc(NC(=O)CCc2nnc3n(CC(C)C)c(=O)c4ccccc4n23)cc1OC ?
*A* -1
